- TARGET OR TEST SYSTEM: human recombinant PDE9 protein (Homo sapiens)
- Construct: His-tag (inferred from the Ni column purification; a myc His-tag vector is named only for the HEK293 expression check)
- Sequence (O76083 whole entry): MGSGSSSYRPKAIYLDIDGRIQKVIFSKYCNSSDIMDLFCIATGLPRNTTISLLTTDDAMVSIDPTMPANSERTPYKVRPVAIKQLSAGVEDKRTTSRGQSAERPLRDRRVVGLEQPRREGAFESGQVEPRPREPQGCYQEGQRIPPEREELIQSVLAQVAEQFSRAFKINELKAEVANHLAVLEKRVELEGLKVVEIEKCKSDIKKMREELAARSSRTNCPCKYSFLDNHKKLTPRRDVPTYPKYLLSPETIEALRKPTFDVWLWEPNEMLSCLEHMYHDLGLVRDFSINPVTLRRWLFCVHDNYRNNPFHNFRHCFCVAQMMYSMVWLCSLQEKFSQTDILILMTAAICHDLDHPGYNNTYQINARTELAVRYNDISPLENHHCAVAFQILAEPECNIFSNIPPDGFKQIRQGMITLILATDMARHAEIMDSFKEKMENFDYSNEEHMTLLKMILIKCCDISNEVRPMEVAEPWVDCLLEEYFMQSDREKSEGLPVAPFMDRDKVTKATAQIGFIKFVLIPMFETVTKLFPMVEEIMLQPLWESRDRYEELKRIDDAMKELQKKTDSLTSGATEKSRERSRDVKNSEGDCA
- METHOD: PDE9 inhibitory activity test (measurement of PDE9 inhibitory action, [3H]-cGMP)
- CONDITION DESCRIPTION: PDE9 IC50, human recombinant PDE9, 30° C., 10 min
Give pIC50 for every item shown.
Quick note: pIC50 values are minus log10 of concentrations in mol/L.

(Q) // lookup pIC50 | system=human recombinant PDE9 protein (Homo sapiens) | key= COc1cc(C)c(-c2ccc3c(c2)[nH]c(=O)c2cnn(C4CCCOC4)c23)c(C)n1 (single isomer, unassigned) [37 (−)]
(A) 8.00

(Q) Same question for COc1nc(C)cc(C)c1-c1cc2[nH]c(=O)c3cnn([C@H]4CCOC4)c3c2cc1F [Example 54] please.
(A) 8.06

(Q) Same question for COc1nc(C)c(Cl)c(C)c1-c1ccc2c(c1)[nH]c(=O)c1cnn(C3CCOCC3)c12 [Example 11] please.
(A) 7.95

(Q) Same question for COc1nc(C)cc(C)c1-c1cc2[nH]c(=O)c3cnn([C@@H]4CCOC4)c3c2cc1F [Example 58] please.
(A) 7.93

(Q) Same question for COc1ncc(C)c(-c2ccc3c(c2)[nH]c(=O)c2cnn(C4COCCOC4)c23)c1C [Example 43] please.
(A) 7.98

(Q) Same question for COc1cc(C)c(-c2ccc3c(c2)[nH]c(=O)c2cnn(C4CCCOC4)c23)c(CF)n1 (single isomer, unassigned) [38 (−)] please.
(A) 7.91

(Q) Same question for Cc1cc(C(F)F)nc(C)c1-c1ccc2c(c1)[nH]c(=O)c1cnn(C3CCOCC3)c12 [Example 16] please.
(A) 8.20

(Q) Same question for CCOc1nccc(C)c1-c1ccc2c(c1)[nH]c(=O)c1cnn(C3CCOCC3)c12 [Example 23] please.
(A) 8.02
